# Test system: primary rat mixed cortical cells
# test_summary: In vitro myelination assay (MBP positive myelin strands, fold myelin pixels above background)
# Format: cell-based
# experimental_conditions: Rattus norvegicus, 10.0 μM compound, relative to baseline of no added compound; read-out: Fold myelin pixels above background, 10.0 μM
Kindly supply the reported fold induction at 10 µM values for the records listed here.

See these solved cases before continuing.
Cc1cc(Nc2ncn(-c3cc(F)cc(F)c3)n2)cc(N2CCN3C(=O)OCC3C2)c1 (stereo not shown) | 100 to 1000
Fc1cc(Nc2ncn(-c3cc(F)cc(F)c3)n2)cc(C2CCN(C3COC3)C2)c1 (stereo not shown) | 1000 to 10000
Cc1cc(Nc2ncn(-c3cc(F)cc(F)c3)n2)cc(N2CCC(N3CCCC3=O)CC2)c1 | 10 to 100

Q) Which value of fold induction at 10 µM has been reported for "Cc1cc(Nc2ncn(-c3ccccc3)n2)cc(C2CCN(C)CC2)c1" in the records?
A) ≤ 1

* * *

# Tested on: primary rat mixed cortical cells
# test_summary: In vitro myelination assay (MBP positive myelin strands, fold myelin pixels above background)
# Format: cell-based
# experimental_conditions: Rattus norvegicus, 1.0 μM compound, relative to baseline of no added compound; read-out: Fold myelin pixels above background
Assign fold induction at 1 µM to each entry below.

Sample answers from the record:
Fc1cc(Nc2ncn(-c3cccc(F)c3)n2)cc(N2CCN(C3COC3)CC2)c1 | 1 to 10
COc1ccc(-n2cnc(Nc3cc(C)cc(N4CC(N5CCOCC5)C4)c3)n2)cc1F | 1 to 10
FC(F)c1cc(Nc2ncn(-c3ccccn3)n2)nc(N2CCN(C3COC3)CC2)c1 | 10 to 100
Cc1cc(Nc2ncn(-c3cccc(C#N)c3)n2)cc(N2CCN(C3COC3)CC2)c1 | 1 to 10
Cc1cc(Nc2ncn(-c3cc(F)cc(F)c3)n2)cc(N2CC(C)(N3CCOCC3)C2)c1 | 10 to 100

Give fold induction at 1 µM for each of the items listed below.
1. Cc1cc(Nc2ncn(-c3ccc(F)c(F)c3)n2)cc(OC2CCOC2)c1 (stereo not drawn)
2. Cc1cc(Nc2ncn(-c3cc(F)cc(F)c3)n2)cc(C2CCCN(C3COC3)C2)c1 (stereo not drawn)
3. CC1(N2CCN(c3cc(C(F)F)cc(Nc4ncn(-c5cc(F)cc(F)c5)n4)n3)CC2)COC1
4. CCc1cc(Nc2ncn(-c3ccc(C#N)cc3)n2)cc(N2CCN(C3COC3)CC2)c1
5. Cc1cc(Nc2ncn(-c3cc(F)cc(F)c3)n2)cc(N2CCN3CCOCC3C2)c1 (stereo not drawn)
6. Cc1cc(Nc2ncn(-c3ccccc3)n2)cc(N2CC(C)N(C)CC2C)c1 (stereo not drawn)

A)
["10 to 100", "100 to 1000", "1 to 10", "≤ 1", "100 to 1000", "10 to 100"]

I would be grateful if you could provide fold induction at 1 µM for each of the following entries.
1. Cc1cc(Nc2ncn(-c3cc(F)cc(F)c3)n2)cc(N2CCOC2=O)c1
2. Cc1cc(Nc2ncn(-c3cc(F)cc(F)c3)n2)cc(N2C3COCC2C3)c1
3. CC(C)Oc1cc(Nc2ncn(-c3cc(F)cc(F)c3)n2)cc(N2CCN(C3COC3)CC2)c1
4. Cc1cc(Nc2ncn(-c3cccc(F)c3)n2)cc(N2CC(N3CCOCC3)C2)c1
5. Cc1cc(Nc2ncn(-c3ccc(F)c(Cl)c3)n2)cc(N2CCN(C3COC3)CC2)c1
6. CC(=O)OCC(C)(COC(C)=O)N1CCN(c2cc(C)cc(Nc3ncn(-c4cc(F)cc(F)c4)n3)c2)CC1
7. Cc1cc(Nc2ncn(-c3cc(F)cc(F)c3)n2)cc(N2CCN(C(C)(C)C)CC2)c1

A)
1: 10 to 100; 2: 10 to 100; 3: 10 to 100; 4: 10 to 100; 5: 1 to 10; 6: 10 to 100; 7: 1 to 10

* * *

# Test system: primary rat mixed cortical cells
# test_summary: In vitro myelination assay (MBP positive myelin strands, fold myelin pixels above background)
# Assay type: cell-based
# experimental_conditions: Rattus norvegicus, 10.0 μM compound, relative to baseline of no added compound; read-out: Fold myelin pixels above background, 10.0 μM
recorded_endpoint: fold induction at 10 µM

Completed entries (count: 4):
CC1CCN(c2cc(Nc3ncn(-c4cc(F)cc(F)c4)n3)cc(C3CC3)n2)CC1 | 10 to 100
Cc1cc(Nc2ncn(-c3cc(F)cc(F)c3)n2)cc(C2CCN(C3COC3)CC2(F)F)c1 (centres unmarked) | 10 to 100
Clc1cc(Nc2ncn(-c3ccccc3)n2)cc(N2CCOCC2)n1 | ≤ 1
c1ccc(-n2cnc(Nc3cc(C4CC4)nc(N4CCOCC4)c3)n2)cc1 | 1 to 10

Q) Which fold induction at 10 µM value belongs to "CCc1cc(Nc2ncn(-c3cnccn3)n2)cc(N2CCN(C3COC3)CC2)c1" ?
A) 100 to 1000

* * *

Task for the reader: assign each of the following molecules its reported fold induction at 10 µM.
# Tested on: primary rat mixed cortical cells
# test_summary: In vitro myelination assay (MBP positive myelin strands, fold myelin pixels above background)
# Assay type: cell-based
# experimental_conditions: Rattus norvegicus, 10.0 μM compound, relative to baseline of no added compound; read-out: Fold myelin pixels above background, 10.0 μM

Some molecules with recorded fold induction at 10 µM:
Cc1cc(Nc2ncn(-c3cccc(F)c3)n2)cc(NC2CCN(C3COC3)C2)c1 (stereo not drawn) | ≤ 1
Cc1cc(Nc2ncn(-c3ccccc3)n2)cc(C2CCCN(C)C2)c1 (stereo not drawn) | ≤ 1

Now, please, on to the next molecule.
Q) Which fold induction at 10 µM is reported with primary rat mixed cortical cells for this entry: "Cc1cc(Nc2ncn(-c3cc(F)cc(F)c3)n2)cc(C2COC2)c1" ?
A) 1000 to 10000

* * *

I'd be grateful if you could share measured fold induction at 10 µM for these entries.
# Tested on: primary rat mixed cortical cells
# test_summary: In vitro myelination assay (MBP positive myelin strands, fold myelin pixels above background)
# Type: cell-based
# experimental_conditions: Rattus norvegicus, 10.0 μM compound, relative to baseline of no added compound; read-out: Fold myelin pixels above background, 10.0 μM

In the examples that follow, each entry is paired with its recorded fold induction at 10 µM.
NC1CN(c2cc(F)cc(Nc3ncn(-c4ccc(F)cc4F)n3)c2)C1 [Compound 283] | ≤ 1
CC(C)Oc1cc(F)cc(-n2cnc(Nc3cc(C4CC4)cc(N4CCN(C5COC5)CC4)c3)n2)c1 [Compound 285] | 10 to 100
COc1cc(Nc2ncn(-c3cc(F)cc(F)c3)n2)cc(N2CCN(C3COC3)CC2)c1 [Compound 310] | 100 to 1000
Cc1cc(Nc2ncn(-c3cccc(F)c3)n2)cc(C2CN(C3COC3)C2)c1 [Compound 36] | ≤ 1

Dear colleague, could you please provide fold induction at 10 µM for the compounds listed below?
1. CCc1cc(F)cc(-n2cnc(Nc3cc(C)cc(N4CCN(C5COC5)CC4)c3)n2)c1 [Compound 206]
2. COc1cc(OC)cc(-n2cnc(Nc3cc(C4CC4)nc(N4CCOCC4)c3)n2)c1 [Compound 210]

A)
100 to 1000
100 to 1000

* * *

I'd be grateful if you could share measured fold induction at 10 µM for these entries.
# Test system: primary rat mixed cortical cells
# test_summary: In vitro myelination assay (MBP positive myelin strands, fold myelin pixels above background)
# Format: cell-based
# experimental_conditions: Rattus norvegicus, 10.0 μM compound; read-out: Fold myelin pixels above background relative to baseline of no added compound

These solved cases illustrate the format of a correct answer.
COCCC1CCN(c2cc(C)cc(Nc3ncn(-c4cc(F)cc(F)c4)n3)n2)CC1 [Compound 855] | 1 to 10
Fc1cccc(-n2cnc(Nc3cc(Cl)cc(N4CC(N5CCOCC5)C4)c3)n2)c1 [Compound 827] | 1 to 10
Cc1cc(NC2CCOCC2)cc(Nc2ncn(-c3cc(F)cc(F)c3)n2)c1F [Compound 1021] | ≤ 1
CCN(CC)CC1CN(c2cc(C)cc(Nc3ncn(-c4cc(F)cc(F)c4)n3)c2)CCO1 (centres unmarked) [Compound 1017] | ≤ 1

Look up fold induction at 10 µM for the entries below, preserving their order.
1. Cc1cc(NC2CCOC2)cc(Nc2ncn(-c3cc(F)cc(F)c3)n2)c1F (centres unmarked) [Compound 953]
2. Cc1cc(Nc2ncn(-c3cc(F)cc(F)c3)n2)cc(OCCN2CCOCC2)c1 [Compound 812]
3. Cc1cc(Nc2ncn(-c3cc(F)cc(F)c3)n2)cc(N2CC(CC#N)C2)c1 [Compound 921]
4. Cc1cc(OCC(=O)N2CCCC2)cc(Nc2ncn(-c3cc(F)cc(F)c3)n2)c1C [Compound 965]
5. Cc1cc(Nc2ncn(-c3cc(F)cc(F)c3)n2)cc(N2CCC3(CCCO3)CC2)c1 [Compound 851]

A)
1: 1 to 10; 2: 10 to 100; 3: 1 to 10; 4: 10 to 100; 5: 10 to 100
